- Tested on: A-427
- Procedure Details: relative viability (nuclei count vs DMSO), 5 days (fraction); higher = more cells survive
- Measurement Setup: first compound 0.253 µM
relative viability values by entry
Answer using only a numeral; do not append any unit.

compound="Nc1cccc2c1CN(C1CCC(=O)NC1=O)C2=O (stereo not drawn) [Lenalidomide] + O=C(c1cc(Cc2n[nH]c(=O)c3ccccc23)ccc1F)N1CCN(C(=O)C2CC2)CC1 [Olaparib] (partner 8 µM)" measured_value=0.713
compound="Nc1cccc2c1CN(C1CCC(=O)NC1=O)C2=O (stereo not drawn) [Lenalidomide] + CC(=O)Nc1cccc(-n2c(=O)n(C3CC3)c(=O)c3c(Nc4ccc(I)cc4F)n(C)c(=O)c(C)c32)c1 [Trametinib] (partner 0.02 µM)" measured_value=0.731
compound="Nc1cccc2c1CN(C1CCC(=O)NC1=O)C2=O (stereo not drawn) [Lenalidomide] + CC(C)C[C@H](NC(=O)[C@H](Cc1ccccc1)NC(=O)c1cnccn1)B(O)O [Bortezomib] (partner 0.002 µM)" measured_value=1.08

Exercise: # relative viability lookup, item Nc1cccc2c1CN(C1CCC(=O)NC1=O)C2=O (stereo not drawn) [Lenalidomide] + COc1cccc2cc(-c3nc([C@H]4CC[C@H](C(=O)O)CC4)n4ncnc(N)c34)[nH]c12 [OSI-027] (partner 0.5 µM)
Solution: 0.48

Exercise: Fill in the blank: the reported relative viability of Nc1cccc2c1CN(C1CCC(=O)NC1=O)C2=O (stereo not drawn) [Lenalidomide] + Cc1cc(Nc2cc(N3CCN(C)CC3)nc(Sc3ccc(NC(=O)C4CC4)cc3)n2)n[nH]1 [Tozasertib] (partner 0.1 µM) is ____.
Solution: 0.197

Exercise: Any idea what relative viability was measured for Nc1cccc2c1CN(C1CCC(=O)NC1=O)C2=O (stereo not drawn) [Lenalidomide] + CS(=O)(=O)CCNCc1ccc(-c2ccc3ncnc(Nc4ccc(OCc5cccc(F)c5)c(Cl)c4)c3c2)o1 [Lapatinib] (partner 2 µM) ?
Solution: 0.983

Exercise: Returns the measured relative viability for the input compound. Input: Nc1cccc2c1CN(C1CCC(=O)NC1=O)C2=O (stereo not drawn) [Lenalidomide] + CS(=O)(=O)N1CCN(Cc2cc3nc(-c4cccc5[nH]ncc45)nc(N4CCOCC4)c3s2)CC1 [Pictilisib] (partner 1 µM)
Solution: 0.796

Exercise: Bench note: what relative viability did Nc1cccc2c1CN(C1CCC(=O)NC1=O)C2=O (stereo not drawn) [Lenalidomide] + O=C(CCCCCCC(=O)Nc1ccccc1)NO [Vorinostat] (partner 1 µM) show?
Solution: 0.871
